method description: Temperature range of liquid crystal (MR)
Type: physicochemical
setup conditions: Table 1; monotropic
Outcome: Yes for Temperature (MR) Range of liquid crystal of at least 70 °C; No for anything lower.

cpd smiles: CCCCCOc1ccc(C(=O)Oc2ccc(C(F)(F)F)cc2)cc1
discrete label: Yes

cpd smiles: CCCCOc1ccc(C(=O)Oc2ccc(C(F)(F)F)cc2)cc1
discrete label: Yes

cpd smiles: CCCCCc1ccc(C(=O)Oc2ccc(C(F)(F)F)cc2)cc1
discrete label: No

cpd smiles: CCCCCCCc1ccc(C(=O)Oc2ccc(C(F)(F)F)cc2)cc1
discrete label: No

cpd smiles: CCCCCCc1ccc(C(=O)Oc2ccc(C(F)(F)F)cc2)cc1
discrete label: No

cpd smiles: CCCCc1ccc(C(=O)Oc2ccc(C(F)(F)F)cc2)cc1
discrete label: No

cpd smiles: CCCCCCCCc1ccc(C(=O)Oc2ccc(C(F)(F)F)cc2)cc1
discrete label: No
